# Test system: MDA-MB-435 melanoma
# PROTOCOL_DESCRIPTION: NCI-60 one-dose screen, 48 h
# EXPERIMENTAL_CONTEXT: 10 µM unless noted
The panel holds about 83,000 compounds, 20% with a hit somewhere; the sample as a whole holds those more often. The source made the active and inactive calls. The calls were made as follows: active = growth percent below 10; inactive = the rest.
Give one outcome, nothing more. List: Y (active), N (inactive)

Some solved entries appear below for comparison.
- O=C1COCCN1c1ccc(NCc2cn(Cc3ccccc3)c3ccccc23)cc1: N
- CC1=CC[C@@H]2C(C)(C)[C@@H](O)CC[C@@]2(C)[C@@H]1COc1ccc2ccc(=O)oc2c1: N
- CC(C)(C)c1cc(C(=O)Nc2ccc(C(=O)NCCN)cc2)cc(C(C)(C)C)c1: Y
- Nc1cc(N)c(N=Nc2ccc(S(=O)(=O)O)cc2)cc1N=Nc1ccc(-c2ccc(N=Nc3ccc(O)c(C(=O)O)c3)cc2)cc1: N
- C=C1C(=O)O[C@H]2[C@H]1CC/C(COC(=O)NCc1ccc(Cn3c(=O)sn(-c4ccc(Cl)cc4)c3=O)cc1)=C\CC[C@@]1(C)O[C@@H]21: N

Entry CCOC(=O)c1nn(C2CCCCO2)c2ccc(NC(=O)CN3CCOCC3)cc12 (stereo not drawn) : call = ?
N

Now the compound CCOC(=O)n1cc(C2=C(c3ccc(OC)c(OC)c3)COC2=O)c2ccccc21
Y

Now the compound O=S(=O)(/N=c1/n(-c2ccccc2)nc2n1CCN2C1=NCCN1)c1ccc(-c2ccccc2)cc1
N

====

# Test system: NCI-H460 lung
# PROTOCOL_DESCRIPTION: NCI-60 one-dose screen, 48 h
# EXPERIMENTAL_CONTEXT: 10 µM unless noted
This is part of a sample that, as a whole, favours compounds with a hit. Of some 83,000 tested, about 20% had one in any assay. Activity calls are given as the source filed them. How the source made its calls: active means growth percent below 10; inactive means the rest.
Give one outcome, nothing more. List: 1 (active), -1 (inactive)

Some solved entries appear below for comparison.
* CCn1cc(-c2[nH]c(=S)ncc2-c2ccc(Cl)cc2)c(-c2ccc(Br)cc2)n1 | -1
* Cc1cnc(N)nc1OCCNC(=O)c1cccc(-c2ccc(S(=O)(=O)Nc3ccc4c(c3)N(C(=O)C3CC3)CCC4)cc2)c1 | -1
* COCCCNc1nc(NC(=O)c2cc(Br)cc(C(F)(F)F)c2)cc(-c2cccnc2)n1 | -1
* CCCCNC(=O)NS(=O)(=O)Cc1ccccc1 | -1

Entry CC(C)c1ccc(/C=N/N=C(N)N)cc1 : call = ?
-1

Now the compound CCOc1ccc(S(=O)(=O)Nc2ccc3c(c2)N(S(=O)(=O)CC)CCC3)cc1
-1

Now the compound O=C1COCCN1c1ccc(NCc2cn(Cc3ccccc3)c3ccccc23)cc1
-1

====

# System: MDA-MB-435 melanoma
# PROTOCOL_DESCRIPTION: NCI-60 one-dose screen, 48 h
# EXPERIMENTAL_CONTEXT: 10 µM unless noted
About 83,000 compounds went through this panel and 20% of them were active in at least one assay; those are over-represented in the sample as a whole. The source made the active and inactive calls. The calls were made as follows: active = growth percent below 10; inactive = the rest.
Give one outcome, nothing more. List: T = active, F = inactive

Some solved entries appear below for comparison.
* CCc1ccc(NC(=O)N[C@@H](Cc2cc(F)cc(F)c2)C(=O)N[C@@H]2C(=O)N3C[C@H](O)C[C@H]3C(=O)N3CCOC[C@H]3C(=O)N[C@@H](C)C(=O)N3C[C@H](C)C[C@H]3C(=O)O[C@H]2C)cc1 | F
* CC1(C)CC[C@]2(C(N)=O)CC[C@]3(C)C(=CC[C@@H]4[C@@]5(C)C/C(=C/c6ccncc6)C(=O)C(C)(C)[C@@H]5CC[C@]43C)[C@@H]2C1 | T
* CCN(CCO)CCC(=O)c1ccc([N+](=O)[O-])cc1 | F
* O=C(O)c1cc([N+](=O)[O-])ccc1Br | F
* CCN=C1C=CC(=C(c2ccc(N(CC)CC)cc2)c2ccc(N(CC)CC)cc2)c2ccccc21 | T
* O=C(CCNCc1ccccc1)c1ccccc1 | F

Entry C[n+]1cccc(NC(=O)c2ccc3ccc4ccc(C(=O)Nc5ccc[n+](C)c5)nc4c3n2)c1 : call = ?
F
